Tested on: A549/ATCC NSCLC
test-details: NCI-60 one-dose screen, 48 h (100 = growth as untreated, 0 = no growth, -100 = all killed)
test-context: 10 µM unless noted
The panel holds about 83,000 compounds, 20% with a hit somewhere; the sample as a whole holds those more often.
endpoint-name: growth (%)
Please give a number only; it is taken to be in %.

*Q* // query growth value for entry O=C1NC2(CCNCC2)Nc2ccccc21
*A* 69.1

*Q* For O=S(=O)(F)c1ncnc2nc[nH]c12 then?
*A* 98.5

*Q* For C[As](=O)(O)c1ccc(C(=O)O)cc1 then?
*A* 106

*Q* For Nc1cccc(CC(=O)Nc2ccc(S(=O)(=O)F)cc2)c1 then?
*A* 96.5

*Q* For O=C(O)CNC(=O)c1ccccc1 then?
*A* 101

====

In this section, each of the molecules is paired with its reported growth.
Test system: HL-60(TB) leukemia
test-details: NCI-60 one-dose screen, 48 h (100 = growth as untreated, 0 = no growth, -100 = all killed)
test-context: 10 µM unless noted
Compounds without any hit were thinned out: in the full panel of roughly 83,000, 20% have a hit. Activity calls are given as the source filed them. The calls were made as follows: active = growth percent below 10; inactive = the rest.

Example molecules with recorded growth:
{"columns": ["molecule", "growth"],
 "data": [
  ["CCN(CC)CCCC(C)N/C(=C1\\C(=O)NC(=O)\\C1=C(/NC(C)CCCN(CC)CC)c1cccc(OC)c1)c1cccc(OC)c1 (stereo not given)", "-35.6% (active)"],
  ["COc1cc(N=Nc2ccc(N)cc2)c(OC)cc1N=Nc1ccccc1.[Cl][Zn][Cl]", "73.5% (inactive)"]
]}

*Q* // query growth value for entry Cn1/c(=N\N=C\c2ccccc2OCCO)sc2ccccc21
*A* 92.5% (inactive)

*Q* For Cc1ccc(NC(=O)N[C@@H](Cc2cc(F)cc(F)c2)C(=O)N[C@@H]2C(=O)N3CCC[C@H]3C(=O)N3CCCC[C@H]3C(=O)N[C@@H](C)C(=O)N3C[C@H](C)C[C@H]3C(=O)O[C@H]2C)cc1 then?
*A* 11.6% (inactive)

*Q* For CSCC[C@@H]1C(=O)N(C)[C@H](C(C)(C)C)N1C(=O)c1ccccc1 then?
*A* 110% (inactive)

====

System: HL-60(TB) leukemia
test-details: NCI-60 one-dose screen, 48 h
test-context: 10 µM unless noted
This is part of a sample that, as a whole, favours compounds with a hit. Of some 83,000 tested, about 20% had one in any assay. Active and inactive are the calls of the source. How the source made its calls: active means growth percent below 10; inactive means the rest.
Give one outcome, nothing more. List: active, inactive

{"columns": ["compound", "class-assignment"],
 "data": [
  ["O=C1/C(=C2\\SC(=S)N(C3CC3)C2=O)SC(=S)N1C1CC1", "inactive"],
  ["CN1C[C@@H](c2ccc(Cl)cc2)[C@]2(NC(=S)N(c3ccc(F)c(Cl)c3)C2=O)[C@@]12C(=O)NC1C=CC(Cl)=C[C@H]12 (some centres not stated)", "active"],
  ["O=C(/C=C/C(Cl)(Cl)Cl)Nc1ccc(Cl)cc1", "inactive"]
]}

*Q* Tell me the recorded outcome of this test for O=C1CCCC1[n+]1ccccc1 (configuration not stated) .
*A* inactive

*Q* For Cn1cc(-c2csc(-c3cn(CCCN4CCOCC4)c4ccc(F)cc34)n2)c2cccnc21 then?
*A* inactive

*Q* For N#Cc1cccc(NC(=O)c2cc(-c3ccc(F)cc3F)ccc2O)c1 then?
*A* active

*Q* For CC(CN)[C@@H]1CC[C@]2(CO)CC[C@]3(C)[C@H](CC[C@@H]4[C@@]5(C)CCC(NCCO)C(C)(C)[C@@H]5CC[C@]43C)[C@@H]12 (some centres not stated) then?
*A* inactive
